Attribute: IC50
biological target: glycine transporter-1 (GlyT-1) (Homo sapiens, UniProt P48067); construct: JAR cells (ATCC#HTB-144), which endogenously express GlyT-1; host or cells: JAR human choriocarcinoma cells; experiment: [14C]glycine uptake assay in JAR cells endogenously expressing GlyT-1 (scintillation proximity); format: cell-based; conditions: JAR cells, [14C]glycine 5 μM, 3 hour incubation; read-out: GlyT-1 IC50
Sequence (P48067 whole entry): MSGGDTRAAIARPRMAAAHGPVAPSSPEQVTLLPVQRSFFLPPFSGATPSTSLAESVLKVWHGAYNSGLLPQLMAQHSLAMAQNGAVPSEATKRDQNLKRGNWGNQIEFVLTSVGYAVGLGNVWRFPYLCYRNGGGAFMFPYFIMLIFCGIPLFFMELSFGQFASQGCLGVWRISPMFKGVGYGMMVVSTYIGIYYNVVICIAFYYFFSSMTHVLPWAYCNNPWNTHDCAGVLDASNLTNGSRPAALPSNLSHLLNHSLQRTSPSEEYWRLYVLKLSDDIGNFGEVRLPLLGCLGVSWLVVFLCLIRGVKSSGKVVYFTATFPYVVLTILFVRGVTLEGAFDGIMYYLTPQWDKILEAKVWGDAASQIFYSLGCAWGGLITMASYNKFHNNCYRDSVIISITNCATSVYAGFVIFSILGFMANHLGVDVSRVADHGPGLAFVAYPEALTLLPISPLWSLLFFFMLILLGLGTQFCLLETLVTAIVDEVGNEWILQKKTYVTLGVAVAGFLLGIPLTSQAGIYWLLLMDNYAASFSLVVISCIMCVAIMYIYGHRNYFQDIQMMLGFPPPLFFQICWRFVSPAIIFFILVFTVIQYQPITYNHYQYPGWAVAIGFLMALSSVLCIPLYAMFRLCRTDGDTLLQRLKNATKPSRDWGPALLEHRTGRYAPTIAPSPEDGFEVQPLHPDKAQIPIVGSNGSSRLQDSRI
Where a name gives a salt, the structure may show the parent alone.
measuredMetric: IC50 (nM)

[[record]]
compound = "CCCS(=O)(=O)N1CCN(C2(CNC(=O)c3ccc(Cl)cc3)CCCC2)CC1 [compound 73, Hydrochloride]"
unitannotation = "nM"
endpointresult = 1990

[[record]]
compound = "CCS(=O)(=O)N1CCN(C2(CNC(=O)c3c(Cl)ccc(C(F)(F)F)c3Cl)CCC(F)(F)CC2)CC1 [compound 215, Hydrochloride]"
unitannotation = "nM"
endpointresult = 2460

[[record]]
compound = "CN(C)S(=O)(=O)N1CCN(C2(CNC(=O)c3ccc(C(F)(F)F)cc3Cl)CCC(F)(F)CC2)CC1 [compound 273, Hydrochloride]"
unitannotation = "nM"
endpointresult = 350

[[record]]
compound = "CCCS(=O)(=O)N1CCN(C2(CNC(=O)c3c(F)ccc(F)c3Cl)CCCCCC2)CC1 [compound 54, Hydrochloride]"
unitannotation = "nM"
endpointresult = 20

[[record]]
compound = "CCCS(=O)(=O)N1CCN(C2(CNC(=O)c3c(C)cccc3C)CCOCC2)CC1 [compound 120, Hydrochloride]"
unitannotation = "nM"
endpointresult = 175

[[record]]
compound = "COc1cc(F)cc(SC)c1C(=O)NCC1(N2CCN(S(=O)(=O)c3cn(C)nn3)CC2)CCCC1 [compound 113, Hydrochloride]"
unitannotation = "nM"
endpointresult = 3

[[record]]
compound = "CCCS(=O)(=O)N1CCN(C2(CNC(=O)c3c(F)cccc3F)CCCOCC2)CC1 (stereo not shown) [compound 268, Hydrochloride]"
unitannotation = "nM"
endpointresult = 238


###

Attribute: pIC50
target: glycine transporter-2 (GlyT-2) (Homo sapiens, UniProt Q9Y345); experiment: [14C]glycine uptake assay in HEK-GlyT-2 transfected cells; conditions: HEK-GlyT-2 cells
Sequence (Q9Y345 whole entry): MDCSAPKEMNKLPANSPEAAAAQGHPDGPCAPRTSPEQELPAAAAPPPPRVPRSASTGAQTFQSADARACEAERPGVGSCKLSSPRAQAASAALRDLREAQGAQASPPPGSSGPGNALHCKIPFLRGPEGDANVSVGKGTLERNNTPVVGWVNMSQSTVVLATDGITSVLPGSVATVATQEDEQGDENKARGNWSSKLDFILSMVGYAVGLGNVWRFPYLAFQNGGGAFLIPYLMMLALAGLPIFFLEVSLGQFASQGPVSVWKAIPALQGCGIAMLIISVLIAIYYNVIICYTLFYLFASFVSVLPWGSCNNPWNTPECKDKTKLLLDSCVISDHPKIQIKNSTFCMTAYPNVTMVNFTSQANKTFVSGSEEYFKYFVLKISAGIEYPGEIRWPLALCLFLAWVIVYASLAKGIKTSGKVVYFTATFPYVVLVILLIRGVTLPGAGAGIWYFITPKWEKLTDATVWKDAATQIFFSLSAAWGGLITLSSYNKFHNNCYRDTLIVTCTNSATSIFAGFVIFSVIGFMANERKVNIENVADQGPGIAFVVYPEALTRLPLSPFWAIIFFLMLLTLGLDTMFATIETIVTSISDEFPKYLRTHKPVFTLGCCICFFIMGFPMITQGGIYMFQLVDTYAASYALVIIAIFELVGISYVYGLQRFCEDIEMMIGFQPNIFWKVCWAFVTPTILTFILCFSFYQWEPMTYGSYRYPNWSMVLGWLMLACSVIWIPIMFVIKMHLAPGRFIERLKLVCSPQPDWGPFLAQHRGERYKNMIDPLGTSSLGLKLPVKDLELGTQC
pIC50: −log10 of the molar value. Counter-ions that a name gives are not always drawn.
measuredMetric: pIC50

[[record]]
molecule = "CCCS(=O)(=O)N1CCN(C2(CNC(=O)c3cccc(OC)c3Cl)CCCCCC2)CC1 [compound 65, Hydrochloride]"
targetorsystem = "glycine transporter-2 (GlyT-2) (Homo sapiens, UniProt Q9Y345)"
endpointresult = "< 4.12"

[[record]]
molecule = "Cn1cc(S(=O)(=O)N2CCN(C3(CNC(=O)c4c(F)cccc4F)CCOCC3)CC2)nn1 [compound 128, Hydrochloride]"
targetorsystem = "glycine transporter-2 (GlyT-2) (Homo sapiens, UniProt Q9Y345)"
endpointresult = "< 4.12"

[[record]]
molecule = "Cn1cnc(S(=O)(=O)N2CCN(C3(CNC(=O)c4ccccc4C(F)(F)F)CCC(F)(F)CC3)CC2)c1 [compound 176, Hydrochloride]"
targetorsystem = "glycine transporter-2 (GlyT-2) (Homo sapiens, UniProt Q9Y345)"
endpointresult = 4.16

[[record]]
molecule = "Cc1cccc(F)c1C(=O)NCC1(N2CCN(S(=O)(=O)CC3CC3)CC2)CCCCC1 [compound 80, Hydrochloride]"
targetorsystem = "glycine transporter-2 (GlyT-2) (Homo sapiens, UniProt Q9Y345)"
endpointresult = "< 4.12"

[[record]]
molecule = "Cn1cc(S(=O)(=O)N2CCN(C3(CNC(=O)c4cc(F)c(Cl)cc4Cl)CCC(F)(F)CC3)CC2)nn1 [compound 231, Hydrochloride]"
targetorsystem = "glycine transporter-2 (GlyT-2) (Homo sapiens, UniProt Q9Y345)"
endpointresult = "< 4.12"

[[record]]
molecule = "CCCS(=O)(=O)N1CCN(C2(CNC(=O)c3c(N)cccc3Cl)CCCC2)CC1 [compound 77, Hydrochloride]"
targetorsystem = "glycine transporter-2 (GlyT-2) (Homo sapiens, UniProt Q9Y345)"
endpointresult = "< 4.52"

[[record]]
molecule = "CC(NC(=O)c1ccc(C(F)(F)F)cc1C(F)(F)F)C1(N2CCN(S(=O)(=O)c3cn(C)nn3)CC2)CCC(F)(F)CC1 (stereo not drawn) [compound 225, Hydrochloride]"
targetorsystem = "glycine transporter-2 (GlyT-2) (Homo sapiens, UniProt Q9Y345)"
endpointresult = "< 4.12"

[[record]]
molecule = "Cn1cnc(S(=O)(=O)N2CCN(C3(CNC(=O)c4ccc(F)cc4Cl)CCCCC3)CC2)c1 [compound 101, Hydrochloride]"
targetorsystem = "glycine transporter-2 (GlyT-2) (Homo sapiens, UniProt Q9Y345)"
endpointresult = "< 4.12"

[[record]]
molecule = "Cn1cnc(S(=O)(=O)N2CCN(C3(CNC(=O)c4c(N)cccc4Cl)CCCCC3)CC2)c1 [compound 99, Hydrochloride]"
targetorsystem = "glycine transporter-2 (GlyT-2) (Homo sapiens, UniProt Q9Y345)"
endpointresult = "< 4.12"

[[record]]
molecule = "CCCS(=O)(=O)N1CCN(C2(CNC(=O)c3c(F)ccc(F)c3Cl)CCCCCC2)CC1 [compound 54, Hydrochloride]"
targetorsystem = "glycine transporter-2 (GlyT-2) (Homo sapiens, UniProt Q9Y345)"
endpointresult = "< 4.12"

[[record]]
molecule = "Cn1cnc(S(=O)(=O)N2CCN(C3(CNC(=O)c4c(F)cc(F)cc4F)CCC(F)(F)CC3)CC2)c1 [compound 167, Hydrochloride]"
targetorsystem = "glycine transporter-2 (GlyT-2) (Homo sapiens, UniProt Q9Y345)"
endpointresult = "< 4.12"

[[record]]
molecule = "CCCS(=O)(=O)N1CCN(C2(CNC(=O)c3c(Cl)cccc3Cl)CCOCC2)CC1 [compound 119, Hydrochloride]"
targetorsystem = "glycine transporter-2 (GlyT-2) (Homo sapiens, UniProt Q9Y345)"
endpointresult = "< 4.35"

[[record]]
molecule = "CCCS(=O)(=O)N1CCN(C2(CNC(=O)c3ccccc3C(F)(F)F)CCC(F)(F)CC2)CC1 [compound 132, Hydrochloride]"
targetorsystem = "glycine transporter-2 (GlyT-2) (Homo sapiens, UniProt Q9Y345)"
endpointresult = "< 4.12"

[[record]]
molecule = "CCCS(=O)(=O)N1CCN(C2(CNC(=O)c3c(F)cccc3OC)CCOCC2)CC1 [compound 123, Hydrochloride]"
targetorsystem = "glycine transporter-2 (GlyT-2) (Homo sapiens, UniProt Q9Y345)"
endpointresult = "< 4.12"

[[record]]
molecule = "O=C(NCC1(N2CCN(S(=O)(=O)CC3CC3)CC2)CCCOC1)c1c(F)cccc1F (stereo not drawn) [compound 126, Hydrochloride]"
targetorsystem = "glycine transporter-2 (GlyT-2) (Homo sapiens, UniProt Q9Y345)"
endpointresult = "< 4.12"

[[record]]
molecule = "Cn1cc(S(=O)(=O)N2CCN(C3(CNC(=O)c4ccc(Cl)cc4Cl)CCOCC3)CC2)nn1 [compound 129, Hydrochloride]"
targetorsystem = "glycine transporter-2 (GlyT-2) (Homo sapiens, UniProt Q9Y345)"
endpointresult = "< 4.12"

[[record]]
molecule = "Cn1cnc(S(=O)(=O)N2CCN(C3(CNC(=O)c4ccccc4OC(F)(F)F)CCC(F)(F)CC3)CC2)c1 [compound 161, Hydrochloride]"
targetorsystem = "glycine transporter-2 (GlyT-2) (Homo sapiens, UniProt Q9Y345)"
endpointresult = "< 4.12"

[[record]]
molecule = "CCCS(=O)(=O)N1CCN(C2(CNC(=O)c3c(C)cc(F)cc3OC)CCCC2)CC1 [compound 75, Hydrochloride]"
targetorsystem = "glycine transporter-2 (GlyT-2) (Homo sapiens, UniProt Q9Y345)"
endpointresult = "< 4.12"

[[record]]
molecule = "CCCS(=O)(=O)N1CCN(C2(CNC(=O)c3ccc(Cl)c(Cl)c3)CCCCCC2)CC1 [compound 68, Hydrochloride]"
targetorsystem = "glycine transporter-2 (GlyT-2) (Homo sapiens, UniProt Q9Y345)"
endpointresult = 5.50

[[record]]
molecule = "CCCS(=O)(=O)N1CCN(C2(CNC(=O)c3ccc(C(F)(F)F)cc3)CCCCCC2)CC1 [compound 61, Hydrochloride]"
targetorsystem = "glycine transporter-2 (GlyT-2) (Homo sapiens, UniProt Q9Y345)"
endpointresult = 4.55

[[record]]
molecule = "CCCS(=O)(=O)N1CCN(C2(CNC(=O)c3c(C)cc(F)cc3OC)CCCCC2)CC1 [compound 19, Hydrochloride]"
targetorsystem = "glycine transporter-2 (GlyT-2) (Homo sapiens, UniProt Q9Y345)"
endpointresult = 4.41

[[record]]
molecule = "CCCS(=O)(=O)N1CCN(C2(CNC(=O)c3ccc(C(F)(F)F)cc3Cl)CCC(F)(F)CC2)CC1C (stereo not drawn) [compound 256, Hydrochloride]"
targetorsystem = "glycine transporter-2 (GlyT-2) (Homo sapiens, UniProt Q9Y345)"
endpointresult = "< 4.12"

[[record]]
molecule = "CCCS(=O)(=O)N1CCN(C2(CNC(=O)c3c(F)cccc3OC)CCCCC2)CC1 [compound 44, Hydrochloride]"
targetorsystem = "glycine transporter-2 (GlyT-2) (Homo sapiens, UniProt Q9Y345)"
endpointresult = "< 4.12"

[[record]]
molecule = "Cn1cc(S(=O)(=O)N2CCN(C3(CNC(=O)c4c(F)cccc4F)CCCC3)CC2)nn1 [compound 108, Hydrochloride]"
targetorsystem = "glycine transporter-2 (GlyT-2) (Homo sapiens, UniProt Q9Y345)"
endpointresult = "< 4.12"

[[record]]
molecule = "CCCS(=O)(=O)N1CCN(C2(CNC(=O)c3ccccc3Cl)CCC(F)(F)CC2)CC1 [compound 139, Hydrochloride]"
targetorsystem = "glycine transporter-2 (GlyT-2) (Homo sapiens, UniProt Q9Y345)"
endpointresult = "< 4.12"

[[record]]
molecule = "Cn1cnc(S(=O)(=O)N2CCN(C3(CNC(=O)c4c(F)cccc4F)CCCCCC3)CC2)c1 [compound 107, Hydrochloride]"
targetorsystem = "glycine transporter-2 (GlyT-2) (Homo sapiens, UniProt Q9Y345)"
endpointresult = "< 4.12"

[[record]]
molecule = "Cn1cnc(S(=O)(=O)N2CCN(C3(CNC(=O)c4ccc(Cl)cc4Cl)CCCCC3)CC2)c1 [compound 97, Hydrochloride]"
targetorsystem = "glycine transporter-2 (GlyT-2) (Homo sapiens, UniProt Q9Y345)"
endpointresult = "< 4.12"

